Before we begin, note that these pKi values for Sodium-dependent serotonin transporter (Rattus norvegicus) originate from several publications.
Lab note — pKi values are minus log10 of concentrations in M.

[
  {
    "COMPOUND": "COc1cccc(CN2CCN(CCOc3cccc4nc(C)ccc34)CC2)c1",
    "pKi": 6.20
  }
]

Look up pKi with Sodium-dependent serotonin transporter (Rattus norvegicus) for this compound: COCc1cc(Br)ccc1Sc1ccccc1CN(C)C
8.56

Look up pKi with Sodium-dependent serotonin transporter (Rattus norvegicus) for this compound: COc1ccc2[nH]cc(C3CCCN(CCCCn4c(=O)c(-c5ccccc5C)c5ccccn5c4=O)C3)c2c1 (configuration not stated)
7.06

Look up pKi with Sodium-dependent serotonin transporter (Rattus norvegicus) for this compound: Fc1ccc(N(CCCN2CCN(CCCc3ccccc3)CC2)c2ccc(F)cc2)cc1
5.92

###

Before we begin, note that these pKi values for Sodium-dependent serotonin transporter (Rattus norvegicus) originate from several publications.
pKi: −log10 of the molar value.
Threshold rule: pKi greater than or equal to 8 is Satisfied; below that, Not satisfied.

[
  {
    "COMPOUND": "Fc1ccc(CCN[C@@H]2CO[C@H](C(c3ccccc3)c3ccccc3)C2)cc1",
    "TARGET DESC": "Sodium-dependent serotonin transporter (Rattus norvegicus)",
    "CATEGORY": "Not satisfied"
  },
  {
    "COMPOUND": "CCN(C(C)=O)c1cccc(CC2CCN(CCOc3cccc4nc(C)ccc34)CC2)c1",
    "TARGET DESC": "Sodium-dependent serotonin transporter (Rattus norvegicus)",
    "CATEGORY": "Not satisfied"
  },
  {
    "COMPOUND": "Fc1ccc2[nH]cc(CCCNCCOc3cccc4ncccc34)c2c1",
    "TARGET DESC": "Sodium-dependent serotonin transporter (Rattus norvegicus)",
    "CATEGORY": "Satisfied"
  }
]

# check: pKi of COc1ccc(OC(c2ccc(F)cc2)C2CCNCC2)cc1 (stereo unspecified) is greater than or equal to 8
Satisfied

# check: pKi of c1ccc(OC(c2ccccc2)C2CCNCC2)cc1 (stereo unspecified) is greater than or equal to 8
Satisfied

###

Before we begin, note that these pKi values for UniProtKB P31652 originate from several publications.
Lab note — pKi values are minus log10 of concentrations in M.

Look up pKi with UniProtKB P31652 for this compound: Cc1ccccc1-c1c(=O)n(CCCCN2CC=C(c3c[nH]c4ccc(Br)cc34)CC2)c(=O)n2ccccc12
6.06

Look up pKi with UniProtKB P31652 for this compound: CC(C)N1CCC(Oc2ccc(C(CCN(C)C)Oc3ccccc3)cc2)CC1 (centres undefined)
7.41

Look up pKi with UniProtKB P31652 for this compound: CN1Cc2cc(OCCCN3CCC(F)CC3)ccc2C(c2ccc(Cl)cc2)C1 (centres undefined)
7.80

Look up pKi with UniProtKB P31652 for this compound: CN1CCN(c2cc3c4c(cccc4n2)-c2ccccc2-3)CC1
5.80

###

Before we begin, note that these pKi values for Sodium-dependent serotonin transporter (Rattus norvegicus, UniProt P31652) originate from several publications.
Lab note — pKi values are minus log10 of concentrations in M.

Before answering, review these 3 worked examples.
[
  {
    "MOLECULE": "CCC(=O)Nc1cccc(CC2CCN(CCOc3cccc4nc(C)ccc34)CC2)c1",
    "pKi": 6.10
  },
  {
    "MOLECULE": "Cc1ccc(-c2c(=O)n(CCCCN3CCC(c4c[nH]c5ccccc45)CC3)c(=O)n3ccccc23)cc1",
    "pKi": 9.52
  },
  {
    "MOLECULE": "c1ccc(CCN[C@H]2CO[C@H](C(c3ccccc3)c3ccccc3)C2)cc1",
    "pKi": 6.07
  }
]

Recorded pKi of CNCCC[C@H](c1ccc(Cl)c(Cl)c1)c1cccc2ccccc12 , please.
8.39

Recorded pKi of O=C(NCC1CC1)c1ccc(F)c2c1CC(N(CCCc1c[nH]c3ccc(F)cc13)C1CCC1)CO2 (stereo not given) , please.
8.16

Recorded pKi of C=CC(N)[C@@H]1C[C@@]1(C(=O)N(CC)CC)c1ccccc1 (stereo not given in full) , please.
7.64

Recorded pKi of N#Cc1cccc(OC(c2ccccc2)C2CCNCC2)c1 (single isomer, unassigned; (-)) , please.
8.85

Recorded pKi of CCOCC1CNCCN1c1ccc2cc([N+](=O)[O-])ccc2n1 (stereo not given) , please.
9.37

Recorded pKi of Fc1ccc2[nH]cc(CCCNCCOc3ccccc3)c2c1 , please.
6.92

Recorded pKi of O=C1COc2ccc(OCC3CCCN(CCOc4cccc5ncccc45)C3)cc2N1 (stereo not given) , please.
7.10
